# tgt: Beta-lactamase (Aeromonas veronii, UniProt O31272)
# Sequence (O31272 whole entry): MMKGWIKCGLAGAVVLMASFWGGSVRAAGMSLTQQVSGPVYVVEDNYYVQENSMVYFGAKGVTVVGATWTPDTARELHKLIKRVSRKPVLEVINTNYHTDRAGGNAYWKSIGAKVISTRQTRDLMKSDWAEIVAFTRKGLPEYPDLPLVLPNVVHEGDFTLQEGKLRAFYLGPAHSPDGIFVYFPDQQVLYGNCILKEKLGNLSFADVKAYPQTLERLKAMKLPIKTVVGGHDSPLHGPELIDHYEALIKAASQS
# assay_overview: Inhibition of Aeromonas veronii metallo-beta-lactamase ImiS expressed in Escherichia coli BL21(DE3) using imipenem substrate pre-incubated for 30 mins by Lineweaver-Burk plot method
# measurement_conditions: read-out: Ki
property_name: pKi
Scale explanation: pKi corresponds to minus log10 of a concentration expressed in moles per litre.

Name the reported pKi value associated with the molecule `O=C(CSc1nnc(-c2ccccc2C(=O)O)[nH]1)Nc1ccccc1Cl`
5.64

Data request, read-out pKi, for `O=C(CSc1nnc(-c2ccccc2C(=O)O)[nH]1)Nc1ccccc1[N+](=O)[O-]`
5.57

Endpoint output: pKi of `O=C(CSc1nnc(-c2ccccc2C(=O)O)[nH]1)Nc1cccc([N+](=O)[O-])c1` . Value?
5.72

Data request, read-out pKi, for `O=C(CSc1nnc(-c2ccccc2C(=O)O)[nH]1)Nc1ccc([N+](=O)[O-])cc1`
5.66

Which pKi reading was recorded for the molecule `O=C(CSc1nnc(-c2ccccc2C(=O)O)[nH]1)Nc1nc2ccccc2s1` ?
5.92

Data request, read-out pKi, for `O=C(CSc1nnc(-c2ccccc2C(=O)O)[nH]1)Nc1nc2ccccc2[nH]1`
5.44

// lookup pKi for `O=C(CSc1nnc(-c2ccccc2C(=O)O)[nH]1)Nc1ccc(Cl)cc1`
5.85

Item under review: `O=C(CSc1nnc(-c2ccccc2C(=O)O)[nH]1)Nc1ccccc1` . Reported pKi?
5.74

Please give the measured pKi for this molecule: `O=C(CSc1nnc(-c2ccccc2C(=O)O)[nH]1)Nc1cccc(Cl)c1`
5.62
